# experimentalTarget: T1, Loqs dsRBD1 (Drosophila melanogaster, UniProt Q9VJY9-4 129-211)
# T1 sequence: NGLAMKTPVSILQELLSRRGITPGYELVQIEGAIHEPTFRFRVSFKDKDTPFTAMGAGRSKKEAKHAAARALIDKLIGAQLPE
# experimentNotes: fluorescence anisotropy

binder	Kd [nM]
bantam miRNA/miRNA*, FITC (dsRNA, 5'-phosphate) RNA 1: UGAGAUCAUUUUGAAAGCUGAUU RNA 2: UCGGUUUUCGAUUUGGUUUGACU	233
ban-siRNA, FITC (dsRNA, 5'-phosphate) RNA 1: UGAGAUCAUUUUGAAAGCUGAUU RNA 2: UCAGCUUUCAAAAUGAUCUCACU	228
14 nt RNA, FITC (dsRNA, 5'-phosphate) RNA 1: UGAGAUCAUUUUGA RNA 2: UCAAAAUGAUCUCAUU	365
35 nt dsRNA, FITC (dsRNA, 5'-phosphate) RNA 1: GAUUCAUACAAGUGAGAUCAUUUUGAAAGCUGAUU RNA 2: UCAGCUUUCAAAAUGAUCUCACUUGUAUGAAUCAA	191
